- TEST_DETAILS: recombinant barcode read abundance after kanamycin selection (control-corrected) (log10(CPM+1)); higher = more efficient recombination; sequences stand for … in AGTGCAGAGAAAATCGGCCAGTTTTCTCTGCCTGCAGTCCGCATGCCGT…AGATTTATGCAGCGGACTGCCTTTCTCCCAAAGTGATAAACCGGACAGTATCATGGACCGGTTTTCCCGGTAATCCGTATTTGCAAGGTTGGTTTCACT; site = the 11-nt target
READOUT_KIND: recombinant barcode read abundance (log10)
Enter the number alone.

Memo: CATCCTACTTGGGTTCTAACCTGTTGCCG (site CATCCTACTCG) , reported recombinant barcode read abundance (log10): 0.156

Memo: ACTTAGACTTGGGTTCTAACCTGTTGCCT (site ACTTAGACTGG) , reported recombinant barcode read abundance (log10): 0.258

Memo: GCGCGGCCTTGGGTTCTAACCTGTTGCCT (site CCGCGGCCTAG) , reported recombinant barcode read abundance (log10): 0.0374

Memo: CTCATTCCTTGGGTTCTAACCTGTTGCTT (site CTCATTCCTAG) , reported recombinant barcode read abundance (log10): 0.0511

Memo: ACCCAGTCTTGGGTTCTAACCTGTTGCGG (site GTAAGTGCTAT) , reported recombinant barcode read abundance (log10): 0.151

Memo: GTCCGTCCTTGGGTTCTAACCTGTTGCAT (site GTCCGTCCTAC) , reported recombinant barcode read abundance (log10): 0.688

Memo: GCTTCGGCTTGGGTTCTAACCTGTTGCCT (site GCGTCGGCTAG) , reported recombinant barcode read abundance (log10): 0.0514

Memo: GTTAGAACTTGGGTTCTAACCTGTTGCTT (site CCATTGTCTCG) , reported recombinant barcode read abundance (log10): 0.0117

Memo: ATGGGAGCTTGGGTTCTAACCTGTTGCGA (site AGGGGAGCTCC) , reported recombinant barcode read abundance (log10): 0.627

Memo: AGCAGCCCTTGGGTTCTAACCTGTTGCAG (site AGCAGCCCTCT) , reported recombinant barcode read abundance (log10): 1.72

Memo: ACCAGTCCTTGGGTTCTAACCTGTTGCTA (site ACCAGTCCTCA) , reported recombinant barcode read abundance (log10): 0.065

Memo: TAGGCTCCTTGGGTTCTAACCTGTTGCAC (site TAGGCTCCTGT) , reported recombinant barcode read abundance (log10): 1.94

Memo: AGCCACGCTTGGGTTCTAACCTGTTGCCT (site AGCCACTCTAG) , reported recombinant barcode read abundance (log10): 0.153

Memo: ATATGTGCTTGGGTTCTAACCTGTTGCCG (site ATATGCGCTCG) , reported recombinant barcode read abundance (log10): 0.0242

Memo: ACATTAGCTTGGGTTCTAACCTGTTGCTG (site ACATTAGCTCA) , reported recombinant barcode read abundance (log10): 0.603

Memo: CAGCCCTCTTGGGTTCTAACCTGTTGCCT (site CTGCCCTCTAG) , reported recombinant barcode read abundance (log10): 0.315

Memo: GCTCTAGCTTGGGTTCTAACCTGTTGCCT (site GCTCTAGCTAG) , reported recombinant barcode read abundance (log10): 0.0295

Memo: CGTCAGCCTTGGGTTCTAACCTGTTGCCT (site CGTCACCCTAG) , reported recombinant barcode read abundance (log10): 0.0486

Memo: CACATACCTTGGGTTCTAACCTGTTGCCG (site CACATACCTCG) , reported recombinant barcode read abundance (log10): 0.443

Memo: GACCGTGCTTGGGTTCTAACCTGTTGCCT (site GACCGAGCTAG) , reported recombinant barcode read abundance (log10): 0.0758

Memo: GGTTGACCTTGGGTTCTAACCTGTTGCGG (site GGTTGACCTCC) , reported recombinant barcode read abundance (log10): 1.51

---

- TEST_DETAILS: recombinant UMI read abundance after kanamycin selection (control-corrected) (log10(CPM+1)); higher = more efficient recombination; extreme values may be limits of the assay; sequences stand for … in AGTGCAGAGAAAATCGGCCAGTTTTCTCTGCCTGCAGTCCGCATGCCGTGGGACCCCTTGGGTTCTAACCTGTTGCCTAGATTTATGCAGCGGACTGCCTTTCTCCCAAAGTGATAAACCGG…AGGTTGGTTTCACT; site = the 11-nt donor
READOUT_KIND: recombinant UMI read abundance (log10)

Memo: CTCGACACATGGACCGGTTTTCCCGGTAATCCGTATTTGCT (site CTCCACACTAG) , reported recombinant UMI read abundance (log10): 1.93

Memo: TCGTTCCCATGGACCGGTTTTCCCGGTAATCCGTATTTGAC (site TCGTTCCCTGT) , reported recombinant UMI read abundance (log10): 0

Memo: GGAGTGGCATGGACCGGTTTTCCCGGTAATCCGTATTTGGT (site GGACTGGCTAC) , reported recombinant UMI read abundance (log10): 0.0487

Memo: CGGCAGTCATGGACCGGTTTTCCCGGTAATCCGTATTTGCC (site CGGGAGTCTGG) , reported recombinant UMI read abundance (log10): 0

Memo: GTTGAAGCATGGACCGGTTTTCCCGGTAATCCGTATTTGAG (site GTTGAAGCTCT) , reported recombinant UMI read abundance (log10): 1.61

Memo: GATAAGTCATGGACCGGTTTTCCCGGTAATCCGTATTTGCC (site GATAAGTCTGG) , reported recombinant UMI read abundance (log10): 2.1

Memo: AGGGCTACATGGACCGGTTTTCCCGGTAATCCGTATTTGAC (site AGGACTACTGT) , reported recombinant UMI read abundance (log10): 1.24

Memo: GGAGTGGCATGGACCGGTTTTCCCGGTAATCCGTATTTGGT (site GGAGTGGCTAA) , reported recombinant UMI read abundance (log10): 0.0703

Memo: TGATCGACATGGACCGGTTTTCCCGGTAATCCGTATTTGTT (site AGATCGACTAA) , reported recombinant UMI read abundance (log10): 0.0146

Memo: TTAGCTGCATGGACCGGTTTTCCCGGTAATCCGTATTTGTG (site TTAGCTACTCA) , reported recombinant UMI read abundance (log10): 0.0282

Memo: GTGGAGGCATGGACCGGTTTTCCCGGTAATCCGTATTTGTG (site GAGGAGGCTCA) , reported recombinant UMI read abundance (log10): 0.602

Memo: CTAGAATCATGGACCGGTTTTCCCGGTAATCCGTATTTGTC (site CTAGAATCTGA) , reported recombinant UMI read abundance (log10): 2.71

Memo: GTTCTAGCATGGACCGGTTTTCCCGGTAATCCGTATTTGCA (site GTTCCAGCTTG) , reported recombinant UMI read abundance (log10): 0.0113

Memo: ACAGGACCATGGACCGGTTTTCCCGGTAATCCGTATTTGCA (site ACAGGACCTTG) , reported recombinant UMI read abundance (log10): 0

Memo: CCTCATACATGGACCGGTTTTCCCGGTAATCCGTATTTGGC (site CCTCATACTGC) , reported recombinant UMI read abundance (log10): 0

Memo: GTCTGCACATGGACCGGTTTTCCCGGTAATCCGTATTTGTA (site GTGTGCACTTA) , reported recombinant UMI read abundance (log10): 0.0326

Memo: CACATTTCATGGACCGGTTTTCCCGGTAATCCGTATTTGAA (site CACATTTCTTT) , reported recombinant UMI read abundance (log10): 0

Memo: ACGAGAACATGGACCGGTTTTCCCGGTAATCCGTATTTGCC (site ACGAGAACTGG) , reported recombinant UMI read abundance (log10): 2.44

---

Would you mind telling me the reported recombinant UMI read abundance (log10) of each entry?
- TEST_DETAILS: recombinant UMI read abundance after kanamycin selection (control-corrected) (log10(CPM+1)); higher = more efficient recombination; extreme values may be limits of the assay; sequences stand for … in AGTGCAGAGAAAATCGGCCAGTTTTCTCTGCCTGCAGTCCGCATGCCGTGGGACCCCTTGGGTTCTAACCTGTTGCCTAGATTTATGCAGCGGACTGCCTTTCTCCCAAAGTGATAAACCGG…AGGTTGGTTTCACT; site = the 11-nt donor
Enter the number alone.

Memo: TTAGATGCATGGACCGGTTTTCCCGGTAATCCGTATTTGCC (site TTAGATGCTGG) , reported recombinant UMI read abundance (log10): 1.9

Memo: CTCGCACCATGGACCGGTTTTCCCGGTAATCCGTATTTGTC (site CTCGCACCTGA) , reported recombinant UMI read abundance (log10): 0

Memo: ACAGCATCATGGACCGGTTTTCCCGGTAATCCGTATTTGCA (site ACAGAATCTTG) , reported recombinant UMI read abundance (log10): 0.803

Memo: TGTTCCTCATGGACCGGTTTTCCCGGTAATCCGTATTTGTA (site TGTTCCACTTA) , reported recombinant UMI read abundance (log10): 0.0142

Memo: AGGAAAACATGGACCGGTTTTCCCGGTAATCCGTATTTGCA (site AGGAATACTTG) , reported recombinant UMI read abundance (log10): 0

Memo: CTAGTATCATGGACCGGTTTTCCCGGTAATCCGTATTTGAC (site CTAGTATCTCA) , reported recombinant UMI read abundance (log10): 0.333

Memo: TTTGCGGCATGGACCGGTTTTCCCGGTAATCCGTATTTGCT (site TTTGCGGCTAC) , reported recombinant UMI read abundance (log10): 0.0071

Memo: GGGCCGGCATGGACCGGTTTTCCCGGTAATCCGTATTTGGC (site CGGCCGGCTGC) , reported recombinant UMI read abundance (log10): 0

Memo: AAAGTCACATGGACCGGTTTTCCCGGTAATCCGTATTTGAC (site AAAGTCACTGT) , reported recombinant UMI read abundance (log10): 2.44

Memo: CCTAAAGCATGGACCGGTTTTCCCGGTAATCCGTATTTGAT (site TCTAAAGCTAT) , reported recombinant UMI read abundance (log10): 0.00543

Memo: CCCCTATCATGGACCGGTTTTCCCGGTAATCCGTATTTGTC (site CCCTTATCTGA) , reported recombinant UMI read abundance (log10): 0

Memo: TCCCCCGCATGGACCGGTTTTCCCGGTAATCCGTATTTGCG (site TCCTCCGCTCG) , reported recombinant UMI read abundance (log10): 0.00786

Memo: GCTAAGCCATGGACCGGTTTTCCCGGTAATCCGTATTTGGG (site GCTAAGCCTCC) , reported recombinant UMI read abundance (log10): 0.0172

Memo: GGCCTTTCATGGACCGGTTTTCCCGGTAATCCGTATTTGAC (site CGCCTTTCTGT) , reported recombinant UMI read abundance (log10): 0

Memo: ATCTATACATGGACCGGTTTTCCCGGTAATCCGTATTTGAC (site ATCTATACTGG) , reported recombinant UMI read abundance (log10): 0

Memo: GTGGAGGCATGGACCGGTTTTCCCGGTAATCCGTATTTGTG (site TTGGAGGCTCA) , reported recombinant UMI read abundance (log10): 0.821

Memo: CGTAGAACATGGACCGGTTTTCCCGGTAATCCGTATTTGTT (site CGTTGAACTAA) , reported recombinant UMI read abundance (log10): 0.0104

Memo: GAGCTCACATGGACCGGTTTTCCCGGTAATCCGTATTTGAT (site GAGCTCGCTAT) , reported recombinant UMI read abundance (log10): 0.318

Memo: CAGTCGACATGGACCGGTTTTCCCGGTAATCCGTATTTGTG (site CAGTCGACTCA) , reported recombinant UMI read abundance (log10): 0.661

Memo: GTGTTTCCATGGACCGGTTTTCCCGGTAATCCGTATTTGTG (site GTGTTTCCTCA) , reported recombinant UMI read abundance (log10): 0.368

Memo: GTAGAGGCATGGACCGGTTTTCCCGGTAATCCGTATTTGTG (site GTGGAGGCTCA) , reported recombinant UMI read abundance (log10): 0.704

Memo: CGATCATCATGGACCGGTTTTCCCGGTAATCCGTATTTGGT (site CGATCATCTAT) , reported recombinant UMI read abundance (log10): 1.08

Memo: AGGAAGGCATGGACCGGTTTTCCCGGTAATCCGTATTTGGA (site AGGAAGGCTTC) , reported recombinant UMI read abundance (log10): 1.73

Memo: CATTGCTCATGGACCGGTTTTCCCGGTAATCCGTATTTGAA (site CAATGCTCTTT) , reported recombinant UMI read abundance (log10): 0.335

Memo: TATGTGGCATGGACCGGTTTTCCCGGTAATCCGTATTTGAA (site TATGTGGCTTT) , reported recombinant UMI read abundance (log10): 0.784

Memo: CAATGCTCATGGACCGGTTTTCCCGGTAATCCGTATTTGAC (site CAATGCTCTCT) , reported recombinant UMI read abundance (log10): 0.051

Memo: GTTGTTCCATGGACCGGTTTTCCCGGTAATCCGTATTTGTT (site GTTGTTCCTAG) , reported recombinant UMI read abundance (log10): 0

Memo: CGTCTGTCATGGACCGGTTTTCCCGGTAATCCGTATTTGAC (site CGTCTGTCTGT) , reported recombinant UMI read abundance (log10): 0

Memo: GCTACCGCATGGACCGGTTTTCCCGGTAATCCGTATTTGCC (site GCTACTGCTGG) , reported recombinant UMI read abundance (log10): 0

Memo: AGGACTACATGGACCGGTTTTCCCGGTAATCCGTATTTGGC (site AGGACTACTGC) , reported recombinant UMI read abundance (log10): 2.95

Memo: CGTGTGTCATGGACCGGTTTTCCCGGTAATCCGTATTTGGA (site CGTGTGTCTTC) , reported recombinant UMI read abundance (log10): 1.86

Memo: CGAATCCCATGGACCGGTTTTCCCGGTAATCCGTATTTGCA (site CGAATCCCTTG) , reported recombinant UMI read abundance (log10): 1.55

Memo: AAGTACGCATGGACCGGTTTTCCCGGTAATCCGTATTTGGG (site AAGAACGCTCC) , reported recombinant UMI read abundance (log10): 0.14

Memo: CCAGGTGCATGGACCGGTTTTCCCGGTAATCCGTATTTGAC (site CCAGGTGCTAT) , reported recombinant UMI read abundance (log10): 0.0299

Memo: CGTCGAACATGGACCGGTTTTCCCGGTAATCCGTATTTGTT (site CGTTGAACTAA) , reported recombinant UMI read abundance (log10): 0.00437

Memo: GACCACCCATGGACCGGTTTTCCCGGTAATCCGTATTTGTT (site GCCCACCCTAA) , reported recombinant UMI read abundance (log10): 0.0164
